activation overview
biological target: Kallikrein-7 (Homo sapiens) (UniProt P49862); assay: activation of human kallikrein-7 proenzyme – biochemical, fluorescence intensity, primary screen (AID 652039); conditions: purified proKLK7, EDANS-DABCYL substrate fluorescence; at 7 µM; hits give high values; 100% is mature enzyme control, 0% vehicle
Sequence (P49862 whole entry, looked up): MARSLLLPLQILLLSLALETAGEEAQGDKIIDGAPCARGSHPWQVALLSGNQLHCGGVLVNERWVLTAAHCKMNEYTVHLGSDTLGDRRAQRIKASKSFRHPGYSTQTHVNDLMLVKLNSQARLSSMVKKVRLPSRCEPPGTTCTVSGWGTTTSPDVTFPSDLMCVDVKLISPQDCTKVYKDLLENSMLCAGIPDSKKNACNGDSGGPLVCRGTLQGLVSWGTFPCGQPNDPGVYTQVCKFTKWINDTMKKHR
Among all 370,000 compounds or so, about 3,300 (0.89%) were called active. The list comes from a sample in which actives are over-represented; it also holds close analogues and randomly drawn compounds.
Express your answer in %, writing the number without its unit.

Check out these entries, answers already filled in.
compound | activation, %
Cc1ccccc1SCC(=O)OCC(=O)N1CC(=O)Nc2ccccc21 | 0.52
COC(=O)[C@]12C[C@H](CC(=O)N3CCN(C(=O)C4CC4)CC3)C(=O)N(CCC3=CCCCC3)C1=C[C@H](C(C)C)O[C@@H]2C1CC1 | 0.25
COc1cccc(NC(=O)CN(C)C(=O)c2ccccc2CCc2ccccc2)c1 | 0.07
CNc1nc(SC)nc(N(C#N)CC(=O)OC)n1 | -0.23
Cc1cc(S(=O)(=O)c2cc3ccc(O)c(C)c3oc2=O)ccc1F | 22.6

So for Cc1cccc(C)c1NC(=O)C(c1ccccc1)N1CC(=O)Nc2ccccc21 (configuration not stated) , the logged activation turned out to be 16.4

So for CCCCCC(=O)Nc1ccc(-c2cn3cccnc3n2)cc1 , the logged activation turned out to be 52.5

So for CCN1CCCC1CNC(=O)c1cc2cc(OC)c(OC)cc2[nH]1 (configuration not stated) , the logged activation turned out to be 17.5

So for CC(C)(C)C(=O)Nc1cccc(-c2ccc[nH]2)n1 , the logged activation turned out to be 0.15

So for CCOC(=O)[C@]12CCCCC/C=C\1N(Cc1ccc(OC)cc1)C(=O)[C@H]2CC(=O)NCc1ccc(C)o1 , the logged activation turned out to be 0.76

So for COc1cccc(NC(=O)CN(C)C(=O)/C=C/c2cc(OC)ccc2OC)c1 , the logged activation turned out to be 58

So for C[C@H]1CCC/C=C/C(=O)c2c(O)cc(O)cc2CC(=O)O1 , the logged activation turned out to be 0.41

So for Cc1ccc(CCn2c3c(c4ccccc42)CN(C)CC3)cn1 , the logged activation turned out to be -0.24
